# Test system: 379773-124-R-J2-PDC spheroid viability
# procedure-text: Anticancer human tumor 379773-124-R-J2-PDC patient-derived endometrial carcinoma cell line growth inhibition [POLQ]
# experimental-conditions: second compound 10 µM; first compound 1 µM; stronger effect = lower value; spheroids with HUVEC and MSC
# Method: Multicellular complex tumor spheroid response to Polymerase (POL) inhibitors (novobiocin, ART-558, RP6685) in combination with a variety of drugs and investigational agents in selected tumor cell lines The POL inhibitors (novobiocin, ART-558, and RP6685) were evaluated both individually and in combination with standard of care and investigational anticancer small molecules within a complex spheroid model of solid tumors. . […]
For each record, write down the corresponding viability, T/C.
The response must be a number in % with no trailing unit.

Bench note: what viability, T/C did CC(C)n1c(=O)n(C)c2cnc3cc(F)c(-c4ccc(OCCCN5CCCCC5)nc4)cc3c21 + Cc1cccc(N(C)C(=O)C2C(O)CCN2c2nc(C)cc(C(F)(F)F)c2C#N)c1 show?
73.9

Bench note: what viability, T/C did C=CCn1c(=O)c2cnc(Nc3ccc(N4CCN(C)CC4)cc3)nc2n1-c1cccc(C(C)(C)O)n1 + Cc1cccc(N(C)C(=O)C2C(O)CCN2c2nc(C)cc(C(F)(F)F)c2C#N)c1 show?
3.05

Bench note: what viability, T/C did Nc1ccn(C2OC(CO)C(O)C2(F)F)c(=O)n1 (configuration not stated) + Nc1ccc(C#CCN(C(=O)Cc2ncc(C(F)(F)F)cc2C(F)(F)F)c2ccc(F)cc2)nn1 show?
9.85

Bench note: what viability, T/C did O=C(c1cc(Cc2n[nH]c(=O)c3ccccc23)ccc1F)N1CCN(C(=O)C2CC2)CC1 + Nc1ccc(C#CCN(C(=O)Cc2ncc(C(F)(F)F)cc2C(F)(F)F)c2ccc(F)cc2)nn1 show?
96.5

Bench note: what viability, T/C did CC1COCCN1c1cc(C2(O)CC3CCC(C2)O3)c2cnn(-c3ccn[nH]3)c2n1 (configuration not stated) + Nc1ccc(C#CCN(C(=O)Cc2ncc(C(F)(F)F)cc2C(F)(F)F)c2ccc(F)cc2)nn1 show?
14.6

Bench note: what viability, T/C did C=CC(=O)N1CCN(c2nc(=O)n(-c3c(C)ccnc3C(C)C)c3nc(-c4c(O)cccc4F)c(F)cc23)C(C)C1 (configuration not stated) + COC1C(OC(N)=O)C(O)C(Oc2ccc3c(O)c(NC(=O)c4ccc(O)c(CC=C(C)C)c4)c(=O)oc3c2C)OC1(C)C show?
80.5

Bench note: what viability, T/C did C=CC(=O)N1CCN(c2nc(=O)n(-c3c(C)ccnc3C(C)C)c3nc(-c4c(O)cccc4F)c(F)cc23)C(C)C1 (configuration not stated) + Nc1ccc(C#CCN(C(=O)Cc2ncc(C(F)(F)F)cc2C(F)(F)F)c2ccc(F)cc2)nn1 show?
91.4

Bench note: what viability, T/C did O=C(Nc1ccc(O)c(NS(=O)(=O)c2ccc(F)cc2)c1)c1ccc(-c2ccccc2)cc1 + Cc1cccc(N(C)C(=O)C2C(O)CCN2c2nc(C)cc(C(F)(F)F)c2C#N)c1 show?
94

Bench note: what viability, T/C did O=c1[nH]cc(F)c(=O)[nH]1 + Nc1ccc(C#CCN(C(=O)Cc2ncc(C(F)(F)F)cc2C(F)(F)F)c2ccc(F)cc2)nn1 show?
90.2

Bench note: what viability, T/C did Nc1ccn(C2OC(CO)C(O)C2(F)F)c(=O)n1 (configuration not stated) + Cc1cccc(N(C)C(=O)C2C(O)CCN2c2nc(C)cc(C(F)(F)F)c2C#N)c1 show?
11.4

Bench note: what viability, T/C did C#Cc1c(F)ccc2cc(O)cc(-c3ncc4c(N5CC6CCC(C5)N6)nc(OCC56CCCN5CC(F)C6)nc4c3F)c12 (configuration not stated) + Nc1ccc(C#CCN(C(=O)Cc2ncc(C(F)(F)F)cc2C(F)(F)F)c2ccc(F)cc2)nn1 show?
85.6

Bench note: what viability, T/C did COc1cc2cc(C(=O)CCC(=O)O)sc2cc1OC + Cc1cccc(N(C)C(=O)C2C(O)CCN2c2nc(C)cc(C(F)(F)F)c2C#N)c1 show?
89.9

Bench note: what viability, T/C did CNCc1ccc(-c2[nH]c3cc(F)cc4c3c2CCNC4=O)cc1 + Nc1ccc(C#CCN(C(=O)Cc2ncc(C(F)(F)F)cc2C(F)(F)F)c2ccc(F)cc2)nn1 show?
87.1

Bench note: what viability, T/C did CC1COCCN1c1cc(C2(S(C)(=N)=O)CC2)nc(-c2ccnc3[nH]ccc23)n1 (configuration not stated) + COC1C(OC(N)=O)C(O)C(Oc2ccc3c(O)c(NC(=O)c4ccc(O)c(CC=C(C)C)c4)c(=O)oc3c2C)OC1(C)C show?
61.7

Bench note: what viability, T/C did O=c1[nH]cc(F)c(=O)[nH]1 + Cc1cccc(N(C)C(=O)C2C(O)CCN2c2nc(C)cc(C(F)(F)F)c2C#N)c1 show?
83

Bench note: what viability, T/C did COc1cc(C2c3cc4c(cc3C(OC3OC5COC(C)OC5C(O)C3O)C3COC(=O)C23)OCO4)cc(OC)c1O (configuration not stated) + Cc1cccc(N(C)C(=O)C2C(O)CCN2c2nc(C)cc(C(F)(F)F)c2C#N)c1 show?
35.5

Bench note: what viability, T/C did CNCc1ccc(-c2[nH]c3cc(F)cc4c3c2CCNC4=O)cc1 + COC1C(OC(N)=O)C(O)C(Oc2ccc3c(O)c(NC(=O)c4ccc(O)c(CC=C(C)C)c4)c(=O)oc3c2C)OC1(C)C show?
75.5

Bench note: what viability, T/C did CC(C)n1c(=O)n(C)c2cnc3cc(F)c(-c4ccc(OCCCN5CCCCC5)nc4)cc3c21 + Nc1ccc(C#CCN(C(=O)Cc2ncc(C(F)(F)F)cc2C(F)(F)F)c2ccc(F)cc2)nn1 show?
77.8

Bench note: what viability, T/C did COc1cccc(OCCCN)c1-c1cc(Nc2cnc(C#N)cn2)n[nH]1 + Cc1cccc(N(C)C(=O)C2C(O)CCN2c2nc(C)cc(C(F)(F)F)c2C#N)c1 show?
2.26

Bench note: what viability, T/C did COc1ccc([C@@H](O)c2cc(-c3ncnc4cc(N5CCOCC5)ccc34)c(F)cc2Cl)nn1 + Cc1cccc(N(C)C(=O)C2C(O)CCN2c2nc(C)cc(C(F)(F)F)c2C#N)c1 show?
80

Bench note: what viability, T/C did O=C(c1cc(Cc2n[nH]c(=O)c3ccccc23)ccc1F)N1CCN(C(=O)C2CC2)CC1 + Cc1cccc(N(C)C(=O)C2C(O)CCN2c2nc(C)cc(C(F)(F)F)c2C#N)c1 show?
72.4

Bench note: what viability, T/C did O=C(Nc1ccc(O)c(NS(=O)(=O)c2ccc(F)cc2)c1)c1ccc(-c2ccccc2)cc1 + Nc1ccc(C#CCN(C(=O)Cc2ncc(C(F)(F)F)cc2C(F)(F)F)c2ccc(F)cc2)nn1 show?
85.2

###

# Tested on: 379773-124-R-J2-PDC spheroid viability
# procedure-text: Anticancer human tumor 379773-124-R-J2-PDC cell line growth inhibition [POLQ];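 further: spheroids exposed to drugs for seven days before readout; percent viability relative to DMSO vehicle control taken as 100%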
# experimental-conditions: second compound 10 µM; first compound 0.001 µM; stronger effect = lower value; spheroids with HUVEC and MSC
reported-endpoint: viability, T/C (%)
The response must be a number in % with no trailing unit.

Bench note: what viability, T/C did Cn1ncnc1[C@H]1c2n[nH]c(=O)c3cc(F)cc(c23)N[C@@H]1c1ccc(F)cc1 + Cc1cccc(N(C)C(=O)C2C(O)CCN2c2nc(C)cc(C(F)(F)F)c2C#N)c1 show?
78

Bench note: what viability, T/C did CC[C@@]1(O)C(=O)OCc2c1cc1n(c2=O)Cc2cc3c(CN(C)C)c(O)ccc3nc2-1 + Nc1ccc(C#CCN(C(=O)Cc2ncc(C(F)(F)F)cc2C(F)(F)F)c2ccc(F)cc2)nn1 show?
79.9

Bench note: what viability, T/C did CC[C@@]1(O)C(=O)OCc2c1cc1n(c2=O)Cc2cc3c(CN(C)C)c(O)ccc3nc2-1 + Cc1cccc(N(C)C(=O)C2C(O)CCN2c2nc(C)cc(C(F)(F)F)c2C#N)c1 show?
95

###

# System: 379773-124-R-J2-PDC spheroid viability
# procedure-text: Anticancer human tumor 379773-124-R-J2-PDC cell line growth inhibition [POLQ];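 further: spheroids exposed to drugs for seven days before readout; percent viability relative to DMSO vehicle control taken as 100%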
# experimental-conditions: second compound 3.16 µM; first compound 0.0316 µM; stronger effect = lower value; spheroids with HUVEC and MSC
For each record, write down the corresponding viability, T/C.

Bench note: what viability, T/C did Nc1ccn(C2OC(CO)C(O)C2(F)F)c(=O)n1 (stereo not drawn) + COC1C(OC(N)=O)C(O)C(Oc2ccc3c(O)c(NC(=O)c4ccc(O)c(CC=C(C)C)c4)c(=O)oc3c2C)OC1(C)C show?
16.1%

Bench note: what viability, T/C did CC[C@@]1(O)C(=O)OCc2c1cc1n(c2=O)Cc2cc3c(CN(C)C)c(O)ccc3nc2-1 + Cc1cccc(N(C)C(=O)C2C(O)CCN2c2nc(C)cc(C(F)(F)F)c2C#N)c1 show?
23%

Bench note: what viability, T/C did CC[C@@]1(O)C(=O)OCc2c1cc1n(c2=O)Cc2cc3c(CN(C)C)c(O)ccc3nc2-1 + Nc1ccc(C#CCN(C(=O)Cc2ncc(C(F)(F)F)cc2C(F)(F)F)c2ccc(F)cc2)nn1 show?
39.6%
